# Test System: IL-17A/A (Homo sapiens, UniProt Q16552)
# Assay Explanation: IL-17A/A HEK-Blue cell assay (SEAP reporter)
# Measurement Setup: HEK-Blue IL-17A reporter cells, IL17A/A 5 ng/mL, 20 hours, SEAP read at A630; read-out: HEK-Blue IL17AA (IC50 for IL-17A/A inhibition)
Measured Attribute: IC50

Problem: Name the reported IC50 value associated with the compound CCn1nccc1C(=O)N[C@H](c1cn2nc(C[C@H]3C[C@@H](C(F)(F)F)CNC3=O)c(C3CCOCC3)nc2n1)C1CCCCC1 [Compound 196]
Result: < 100 nM

Problem: Name the reported IC50 value associated with the compound O=C(N[C@H](c1cn2nc(CC3C[C@@H](C(F)(F)F)CNC3=O)c(N3CCOCC3)nc2n1)C1CCC(F)(F)CC1)c1nonc1C1CC1 (stereo partly drawn) [Compound 57]
Result: < 100 nM

Problem: Name the reported IC50 value associated with the compound CCn1nccc1C(=O)N[C@H](c1cn2nc(C[C@H]3C[C@@H](C(F)(F)F)CNC3=O)c(C3(C)CCOC3)nc2n1)C1CCC(F)(F)CC1 (single isomer, unassigned) [Compound 178]
Result: < 100 nM

====

# Test System: IL-17A/F (Homo sapiens, UniProt Q16552+Q96PD4)
# Assay Explanation: IL-17A/F HEK-Blue cell assay (SEAP reporter)
# Measurement Setup: HEK-Blue IL-17A reporter cells, IL17A/F 5 ng/mL, 20 hours, SEAP read at A630; read-out: HEK-Blue IL17AF (IC50 for IL-17A/F inhibition)
Measured Attribute: IC50

>>> val("CCc1nonc1C(=O)N[C@H](c1cn2nc(C[C@H]3C[C@@H](C(F)(F)F)CNC3=O)c(C3CCOCC3)nc2n1)C1CCCCC1 [Compound 221]")
"100 to 1000 nM"
>>> val("CCn1nccc1C(=O)N[C@H](c1cn2nc(C[C@H]3C[C@@H](C(F)(F)F)CNC3=O)c(C34CCCC(C3)OC4)nc2n1)C1CCC(F)(F)CC1 (stereo partly drawn) [Compound 254]")
"100 to 1000 nM"
>>> val("CCn1nccc1C(=O)N[C@H](c1cn2nc(C[C@H]3C[C@@H](C(F)(F)F)CNC3=O)c(C3CCOCC3)nc2n1)[C@@H]1CCCC(F)(F)C1 [Compound 67]")
"< 100 nM"
>>> val("CCn1nccc1C(=O)N[C@H](c1cn2nc(C[C@H]3C[C@@H](C(F)(F)F)CNC3=O)c(N[C@H]3CC[C@@H](OC)CC3)nc2n1)C1CCC(F)(F)CC1 [Compound 201]")
"100 to 1000 nM"

Problem: Name the reported IC50 value associated with the compound CC(C)n1ncnc1C(=O)N[C@H](c1cn2nc(C[C@H]3C[C@@H](C(F)(F)F)CNC3=O)c(C3CCOCC3)nc2n1)C1CCC(F)(F)CC1 [Compound 229]
Result: > 1000 nM

Problem: Name the reported IC50 value associated with the compound CCn1nccc1C(=O)N[C@H](c1cn2nc(C[C@H]3C[C@@H](C(F)(F)F)CNC3=O)c(C3CCOCC3)nc2n1)[C@H]1CC[C@H](C)CC1 [Compound 78]
Result: < 100 nM

====

Some compounds, each annotated with its measured pIC50.
# Test System: IL-17A/F (Homo sapiens, UniProt Q16552+Q96PD4)
# Sequence (Q16552 24-155): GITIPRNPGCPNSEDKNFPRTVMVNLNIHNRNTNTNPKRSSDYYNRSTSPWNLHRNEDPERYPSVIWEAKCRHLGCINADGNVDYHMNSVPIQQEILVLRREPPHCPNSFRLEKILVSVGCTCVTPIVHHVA
# Sequence (Q96PD4 31-163): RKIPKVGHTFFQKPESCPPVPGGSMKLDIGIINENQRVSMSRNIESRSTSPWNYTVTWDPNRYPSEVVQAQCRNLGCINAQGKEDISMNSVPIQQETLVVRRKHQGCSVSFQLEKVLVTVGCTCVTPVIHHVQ
# Assay Explanation: IL-17A/F HEK-Blue cell assay (SEAP reporter)
# Measurement Setup: HEK-Blue IL-17A reporter cells, IL17A/F 5 ng/mL, 20 hours, SEAP read at A630; read-out: HEK-Blue IL17AF (IC50 for IL-17A/F inhibition)
pIC50: −log10 of the molar value.

Answered examples (3):
>>> val("CCn1nccc1C(=O)N[C@H](c1cn2nc(CC3CC(F)(F)CNC3=O)c(N3CCOCC3)nc2n1)C1CCC(F)(F)CC1 (single isomer, unassigned) [Compound 64]")
"< 6.00"
>>> val("CCn1nccc1C(=O)N[C@H](c1cn2nc(C[C@H]3C[C@@H](C(F)(F)F)CNC3=O)c(C3CCCC(F)(F)C3)nc2n1)C1CCC(F)(F)CC1 (single isomer, unassigned)")
"6.00 to 7.00"
>>> val("CCn1nccc1C(=O)N[C@H](c1cn2nc(CC3C[C@@H](C(F)(F)F)CNC3=O)c(N3CC4CC(C3)O4)nc2n1)C1CCC(F)(F)CC1 (single isomer, unassigned) [Compound 82]")
"< 6.00"

Problem: Name the reported pIC50 value associated with the compound CCn1nccc1C(=O)N[C@H](c1cn2nc(C[C@H]3C[C@@H](C(F)(F)F)CNC3=O)c(C3CCN(C)C3)nc2n1)C1CCC(F)(F)CC1 (single isomer, unassigned) [Compound 439]
Result: < 6.00

Problem: Name the reported pIC50 value associated with the compound O=C(N[C@H](c1cn2nc(C[C@@H]3C[C@@H](C(F)(F)F)CNC3=O)cnc2n1)C1CCC(F)(F)CC1)c1nonc1C1CC1 (single isomer, unassigned)
Result: < 6.00

Problem: Name the reported pIC50 value associated with the compound Cn1nccc1C(=O)N[C@H](c1cn2nc(C[C@H]3C[C@@H](C(F)(F)F)CNC3=O)c(C3CCOCC3)nc2n1)[C@H]1CCCC(F)(F)C1
Result: 6.00 to 7.00

Problem: Name the reported pIC50 value associated with the compound CCn1nccc1C(=O)N[C@H](c1cn2nc(C[C@H]3C[C@@H](C(F)(F)F)CNC3=O)c(C3(C)CCOC3)nc2n1)C1CCC(F)(F)CC1 (single isomer, unassigned) [Compound 178]
Result: < 6.00

Problem: Name the reported pIC50 value associated with the compound CCn1nccc1C(=O)N[C@H](c1cn2nc(C[C@H]3C[C@@H](C(F)(F)F)CNC3=O)c(N3CCOC(C)(C)C3)nc2n1)C1CCC(F)(F)CC1
Result: 6.00 to 7.00

Problem: Name the reported pIC50 value associated with the compound CCn1nccc1C(=O)N[C@H](c1cn2nc(C[C@H]3C[C@@H](C(F)(F)F)CNC3=O)c(C(C)(F)F)nc2n1)C1CCC(F)(F)CC1
Result: < 6.00

Problem: Name the reported pIC50 value associated with the compound CC(C)n1nccc1C(=O)N[C@H](c1cn2nc(CC3C[C@@H](C(F)(F)F)CNC3=O)c(N3CCOCC3)nc2n1)[C@H]1CC[C@H](C)CC1 (single isomer, unassigned) [Compound 101]
Result: 6.00 to 7.00

====

# Test System: IL-17A/A (Homo sapiens)
# Sequence (Q16552 24-155): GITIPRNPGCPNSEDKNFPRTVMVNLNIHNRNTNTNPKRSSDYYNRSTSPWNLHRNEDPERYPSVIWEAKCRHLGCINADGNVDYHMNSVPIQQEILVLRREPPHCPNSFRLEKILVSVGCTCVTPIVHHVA
# Assay Explanation: IL-17A/A HEK-Blue cell assay (SEAP reporter)
# Measurement Setup: HEK-Blue IL-17A reporter cells, IL17A/A 5 ng/mL, 20 hours, SEAP read at A630; read-out: HEK-Blue IL17AA (IC50 for IL-17A/A inhibition)
pIC50: −log10 of the molar value.
Some compounds, each annotated with its measured pIC50.

>>> val("O=C(N[C@H](c1cn2nc(C[C@H]3C[C@@H](C(F)(F)F)CNC3=O)c(C3CCCOC3)nc2n1)[C@@H]1CCCC(F)(F)C1)c1nonc1C1CC1 (single isomer, unassigned) [Compound 209]")
"> 7.00"
>>> val("CCn1nccc1C(=O)N[C@H](c1cn2nc(C[C@H]3C[C@@H](C(F)(F)F)CNC3=O)c(CN3CCCC3C)nc2n1)C1CCC(F)(F)CC1 (some centres unmarked)")
"> 7.00"

Problem: Please state recorded pIC50 (tested on IL-17A/A (Homo sapiens)) of CCn1nccc1C(=O)N[C@H](c1cn2nc(C[C@H]3C[C@@H](C(F)(F)F)CNC3=O)c(C3CNC3)nc2n1)C1CCC(F)(F)CC1
Result: > 7.00

Problem: Please state recorded pIC50 (tested on IL-17A/A (Homo sapiens)) of CCn1nccc1C(=O)N[C@H](c1cn2nc(CC3C[C@@H](C(F)(F)F)CNC3=O)c(N3CCO[C@H](C)C3)nc2n1)[C@@H]1CCCC(F)(F)C1 (single isomer, unassigned) [Compound 124]
Result: > 7.00

Problem: Please state recorded pIC50 (tested on IL-17A/A (Homo sapiens)) of CCn1nccc1C(=O)N[C@H](c1cn2nc(C[C@H]3C[C@@H](C(F)(F)F)CNC3=O)c(C[C@@H]3CCOC3)nc2n1)C1CCC(F)(F)CC1 (single isomer, unassigned)
Result: > 7.00

Problem: Please state recorded pIC50 (tested on IL-17A/A (Homo sapiens)) of CCn1nccc1C(=O)N[C@H](c1cn2nc(C[C@H]3C[C@@H](C(F)(F)F)CNC3=O)c(C3CCOCC3)nc2n1)C(C1CC1)C1CC1
Result: > 7.00

Problem: Please state recorded pIC50 (tested on IL-17A/A (Homo sapiens)) of CCn1nccc1C(=O)N[C@H](c1cn2nc(C[C@H]3C[C@@H](C(F)(F)F)CNC3=O)c(C3CCOC4(C3)CN(C(=O)OC(C)(C)C)C4)nc2n1)C1CCC(F)(F)CC1 (some centres unmarked)
Result: 6.00 to 7.00

Problem: Please state recorded pIC50 (tested on IL-17A/A (Homo sapiens)) of CCn1nccc1C(=O)N[C@H](c1cn2nc(C[C@H]3C[C@@H](C(F)(F)F)CNC3=O)c(C[C@H]3CCOC3)nc2n1)C1CCC(F)(F)CC1 (single isomer, unassigned)
Result: > 7.00

Problem: Please state recorded pIC50 (tested on IL-17A/A (Homo sapiens)) of CCc1nc2nc([C@@H](NC(=O)c3ccnn3C)C3CCC(F)(F)CC3)cn2nc1C[C@H]1C[C@@H](C(F)(F)F)CNC1=O
Result: > 7.00

Problem: Please state recorded pIC50 (tested on IL-17A/A (Homo sapiens)) of CCn1nccc1C(=O)N[C@H](c1cn2nc(CC3C[C@@H](C(F)(F)F)CNC3=O)c(C3CCOCC3)nc2n1)C1CCC(F)(F)CC1 (stereo in doubt)
Result: > 7.00

Problem: Please state recorded pIC50 (tested on IL-17A/A (Homo sapiens)) of CCn1nccc1C(=O)N[C@H](c1cn2nc(C[C@H]3C[C@@H](C(F)(F)F)CNC3=O)c(C3CCOC4(C3)CN(C)C4)nc2n1)C1CCC(F)(F)CC1 (some centres unmarked)
Result: 6.00 to 7.00
